- test system: human P2X7 (Homo sapiens, UniProt Q99572)
- Construct: expressed in transfected cells
- Sequence (Q99572 whole entry): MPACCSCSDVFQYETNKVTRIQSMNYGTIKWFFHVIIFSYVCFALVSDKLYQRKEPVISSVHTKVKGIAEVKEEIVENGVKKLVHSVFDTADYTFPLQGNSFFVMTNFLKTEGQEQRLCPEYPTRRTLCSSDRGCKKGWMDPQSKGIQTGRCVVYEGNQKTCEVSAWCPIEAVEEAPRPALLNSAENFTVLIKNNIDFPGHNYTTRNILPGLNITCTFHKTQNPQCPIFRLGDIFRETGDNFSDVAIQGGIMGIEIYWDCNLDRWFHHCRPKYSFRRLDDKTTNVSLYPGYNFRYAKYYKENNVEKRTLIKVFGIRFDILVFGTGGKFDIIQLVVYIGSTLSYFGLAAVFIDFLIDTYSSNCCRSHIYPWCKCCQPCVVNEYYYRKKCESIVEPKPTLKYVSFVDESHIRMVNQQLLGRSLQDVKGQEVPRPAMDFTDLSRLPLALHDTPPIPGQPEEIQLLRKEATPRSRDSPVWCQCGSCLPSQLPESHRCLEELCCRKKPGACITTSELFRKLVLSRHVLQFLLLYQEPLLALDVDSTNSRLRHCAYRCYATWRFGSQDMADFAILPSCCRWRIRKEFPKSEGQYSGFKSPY
- measurement description: YO-PRO-1 dye uptake assay in HEK-hP2X7 cells
- Type: cell-based
- test context: maximum response defined at 1 mM ATP; 10 µM glycoside

{"columns": ["compound", "Maximum response (fold increase) [fold]"],
 "data": [
  ["COC(=O)[C@@]1(C)CC[C@]2(C(=O)O)CC[C@]3(C)C(=CC[C@@H]4[C@@]5(C)C[C@H](O)[C@H](O[C@@H]6OC[C@@H](O[C@@H]7O[C@H](CO)[C@@H](O)[C@H](O)[C@H]7O)[C@H](O)[C@H]6O)[C@@](C)(CO)[C@@H]5CC[C@]43C)[C@@H]2C1 [Esculentoside A, esculentoside A]", 0.94],
  ["CC[C@H](CC[C@@H](C)[C@H]1CC[C@H]2[C@@H]3CC=C4C[C@@H](O[C@@H]5O[C@H](CO)[C@@H](O)[C@H](O)[C@H]5O)CC[C@]4(C)[C@H]3CC[C@]12C)C(C)C", 1.33],
  ["CC(C)=CCC[C@](C)(O[C@@H]1O[C@H](CO)[C@@H](O)[C@H](O)[C@H]1O)[C@H]1CC[C@]2(C)[C@@H]1[C@H](O)C[C@@H]1[C@@]3(C)CC[C@H](O[C@@H]4O[C@H](CO)[C@@H](O)[C@H](O)[C@H]4O[C@@H]4O[C@H](CO)[C@@H](O)[C@H](O)[C@H]4O)C(C)(C)[C@@H]3CC[C@]12C [Ginsenoside-Rd, ginsenoside-Rd]", 2.77]
]}
